Exercise: state measured koff for each of the binders provided.
# TARGET_DESC: T1, AAV8 (adeno-associated virus 8)
# T1 construct: also called adeno-associated virus serotype 8
# ASSAY_OVERVIEW: SPR, AAV amine-coupled to CM5 chip;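 also: nanobodies flowed as analyte at seven concentrations spanning 1–100 nM over immobilized AAV (500–800 RU), kinetic constants derived by fitting the binding curves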
Respond numerically; units are s⁻¹ and should not be typed.

Q: I'd like to know its koff. The binder in question is A4-089 (VHH) VHH: VQLQESGGGLVQPGGSLRLSCAASGSNFSINTMGWYRQAPGKQRELVATFTRAGNTNYADSVKGRFTISRDNGKNTVYLQMNSLRPEDTAVYYCHVDEVRDSSWTTSNLWGQGTQVTVSS
A: 0.00054

Q: Now the binder A4-069 (VHH) VHH: VQLQESGGGLVQPGGSLRLSCAASGSIFTINSMGWYRQAPGKWRELVATVTRGGNTNYANSVKGRFTISRDNAKNTVYLQMNTLRPEDTAVYYCHLDEVRDSSWTTSNLWGQGTQVTVSS
A: 0.00142

Q: Now the binder A4-084 (VHH) VHH: VQLQESGGGLVQPGGSLKLSCAASGSRFSLNTMGWYRQAPRKQREFVAAVTRGGNTNYGDFVKGRFTISRDNAKNTVYLQMNSLRPEDTAVYYCHVDELRESSWTTSNLWGQGTQVTVSS
A: 0.00177

Q: Now the binder A4-067 (VHH) VHH: VQLQESGGGLVQTGGSLRLSCAASGRAFSLNTMGWYRQAPGKWRELVATVTRGGSTNYAGSVKGRFTISRDNTKNTVYLQMNNLRPEDTAVYYCHVDEVRESSWTTSNLWGQGTQVTVSS
A: 0.00044

Q: Now the binder A4-072 (VHH) VHH: VQLQESGGGLAQPGGSLRLSCAASGSSFVINTMGWYRQAPGKQREFVATVTRGGSTNYGEFVKGRFTISRDNAKNTVYLQMNSLRPEDTAVYYCHVDELRQSSWTTSNLWGQGTQVTVSS
A: 0.00044

Origin of the recorded values: patent US20260193326A1
